Listed here: items and their measured pIC50.
target: C-Raf FL (full length CRAF with Y340E and Y341E activating mutations, co-expressed with h14-3-3 zeta) (Homo sapiens (Human), UniProt P04049, Y340E/Y341E); assay: In vitro Raf activity determination, AlphaScreen p-MEK readout, c-Raf (C-Raf FL); assay type: biochemical; conditions: c-Raf approximately 4 nM, ATP 1 μM, pre-incubation 60 minutes, reaction 1 hour
Sequence (P04049 whole entry Y340E/Y341E): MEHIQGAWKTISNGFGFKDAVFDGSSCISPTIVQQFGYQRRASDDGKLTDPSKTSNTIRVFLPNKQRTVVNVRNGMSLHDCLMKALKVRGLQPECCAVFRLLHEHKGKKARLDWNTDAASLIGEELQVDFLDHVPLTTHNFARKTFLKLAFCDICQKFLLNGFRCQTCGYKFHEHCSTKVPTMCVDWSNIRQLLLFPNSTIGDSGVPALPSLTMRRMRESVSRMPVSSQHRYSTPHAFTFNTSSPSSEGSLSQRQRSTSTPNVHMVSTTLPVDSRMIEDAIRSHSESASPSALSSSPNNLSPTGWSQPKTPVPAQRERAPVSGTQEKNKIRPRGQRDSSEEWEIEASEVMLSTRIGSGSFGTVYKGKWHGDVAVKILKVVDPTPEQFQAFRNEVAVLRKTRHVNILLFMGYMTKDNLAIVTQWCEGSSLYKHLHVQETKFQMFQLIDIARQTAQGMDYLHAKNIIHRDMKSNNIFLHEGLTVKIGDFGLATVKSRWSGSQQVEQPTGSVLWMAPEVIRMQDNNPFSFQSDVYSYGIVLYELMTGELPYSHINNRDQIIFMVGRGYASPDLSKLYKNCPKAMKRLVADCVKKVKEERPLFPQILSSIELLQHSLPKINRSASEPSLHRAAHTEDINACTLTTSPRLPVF
Sequence (P63104 whole entry partner): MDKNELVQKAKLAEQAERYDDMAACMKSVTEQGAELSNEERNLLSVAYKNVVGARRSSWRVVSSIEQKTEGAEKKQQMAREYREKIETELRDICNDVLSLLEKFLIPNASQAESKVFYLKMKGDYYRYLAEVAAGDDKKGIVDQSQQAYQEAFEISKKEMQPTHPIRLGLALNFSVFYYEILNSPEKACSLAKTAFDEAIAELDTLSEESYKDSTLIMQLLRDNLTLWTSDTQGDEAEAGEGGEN
// pIC50 here means minus log10 of the molar concentration (mol/L)

Previously resolved entries follow.
compound="Cc1ccc(NC(=O)c2ccnc(C(C)(F)F)c2)cc1-c1ccc2c(c1)N1CCOCC1C(F)(CO)C2 (racemic) [Example 78]" test_value=10.70
compound="CCN1C(=O)OC2COCCC2c2cc(-c3cc(NC(=O)c4cccc(C(F)(F)F)c4)cnc3C)cnc21 (stereo not shown) [Example 296]" test_value=8.74
compound="Cc1ccc(NC(=O)c2ccnc(C(F)(F)F)c2)cc1-c1ccc2c(c1)N1CCOCC1CC2(C)O (racemic) [Example 22]" test_value=9.64

# input for lookup
Exercise: Give pIC50 for CCN1C(=O)C2COCCN2c2cc(-c3cc(NC(=O)c4ccnc(C(F)(F)F)c4)ccc3C)cnc21 (stereo in doubt) [Example 114]
Solution: 10.15

* * *

molecular target: C-Raf FL (full length CRAF with Y340E and Y341E activating mutations, co-expressed with h14-3-3 zeta) (Homo sapiens (Human), UniProt P04049, Y340E/Y341E); assay: In vitro Raf activity determination, AlphaScreen p-MEK readout, c-Raf (C-Raf FL); settings: c-Raf approximately 4 nM, ATP 1 μM, pre-incubation 60 minutes, reaction 1 hour
PARAMETER: IC50 (nM)
Give a bare numeral; the unit nM is implied.

Previously resolved entries follow.
molecule=CCN1c2ncc(-c3cc(NC(=O)c4ccnc(C(F)(F)F)c4)ccc3C)cc2[C@@H]2CCOC[C@H]2C12CC2 test_value=0.9
molecule=Cc1ccc(NC(=O)c2ccnc(C(F)(F)F)c2)cc1-c1cnc2c(c1)N1CCOC[C@@H]1C1(COC1)C2 test_value=0.36
molecule=Cc1ncc(NC(=O)c2cccc(C(F)(F)F)c2)cc1-c1cnc2c(c1)N1CCOC[C@H]1[C@@H](C(C)(C)O)C2 test_value=0.5

Exercise: Give IC50 for CCN1C(=O)[C@@H]2[C@H]3COC[C@H]3[C@@H]2c2cc(-c3cc(NC(=O)c4cncc(C(F)(F)F)c4)ccc3C)cnc21
Solution: 0.5

Exercise: Give IC50 for Cc1ncc(NC(=O)c2cccc(C(F)(F)F)c2)cc1-c1cnc2c(c1)N1CCOC[C@H]1C[C@H]2OCCO
Solution: 0.4

Exercise: Give IC50 for CCN1C(=O)OC2COCCC2c2cc(-c3cc(NC(=O)c4ccnc(C(F)(F)F)c4F)ccc3C)cnc21 (stereo not drawn)
Solution: 0.1

Exercise: Give IC50 for Cc1ccc(NC(=O)c2ccnc(C(C)(F)F)c2)cc1-c1ccc2c(c1)N1CCOC[C@H]1[C@](F)(CF)C2
Solution: 1.5

Exercise: Give IC50 for CCN1C(=O)CC2COCCN2c2cc(-c3cc(NC(=O)c4cccc(C(F)(F)F)c4)cnc3C)cnc21 (racemic)
Solution: 0.06

* * *

target: C-Raf FL (full length CRAF with Y340E and Y341E activating mutations, co-expressed with h14-3-3 zeta) (Homo sapiens (Human), UniProt P04049, Y340E/Y341E); experiment: In vitro Raf activity determination, AlphaScreen p-MEK readout, c-Raf (C-Raf FL); details: c-Raf approximately 4 nM, ATP 1 μM, pre-incubation 60 minutes, reaction 1 hour
PARAMETER: IC50
Answer as a quantity: numeral, then unit.

compound="Cc1ncc(NC(=O)c2ccnc(C(C)(F)F)c2)cc1-c1ccc2c(c1)N1CCOC[C@H]1[C@@](C)(C#N)C2 (racemic) [Example 89]" test_value="0.036 nM"
compound="CCN1C(=O)CC2CCOCCN2c2cc(-c3cc(NC(=O)c4ccnc(C(F)(F)F)c4)ccc3C)cnc21 (stereo not shown) [Example 316]" test_value="0.8 nM"
compound="CCN1C(=O)C2COCC[C@@]2(C)c2cc(-c3cc(NC(=O)c4cncc(C(F)(F)F)c4)ccc3C)cnc21 (stereo in doubt) [Example 346]" test_value="0.1 nM"
compound="Cc1ccc(NC(=O)c2ccnc(C(C)(F)F)c2)cc1-c1cnc2c(c1)[C@@H]1CCOC[C@H]1C(=O)N2C(C)C [Example 263]" test_value="0.3 nM"
compound="Cc1ccc(NC(=O)c2cc(C(F)(F)F)ccn2)cc1-c1cnc2c(c1)N1CCOC[C@H]1C[C@@H]2O (racemic) [Example 147]" test_value="0.0026 nM"
compound="Cc1ccc(NC(=O)c2ccnc(C(C)(F)F)c2)cc1-c1cnc2c(c1)N1CCOC[C@H]1C(C)(C)[C@H]2O [Example 161]" test_value="0.08 nM"
compound="Cc1ccc(NC(=O)c2ccnc(C(C)(C)F)c2)cc1-c1cnc2c(c1)N1CCOC[C@@H]1C[C@@H]2O [Example 143]" test_value="0.0088 nM"
compound="Cc1ccc(NC(=O)c2ccnc(C(C)(C)F)c2)cc1-c1cnc2c(c1)N1CCOC[C@H]1C[C@H]2OCCO [Example 511]" test_value="0.2 nM"

# input for lookup
Exercise: Give IC50 for CCN1C[C@@H]2COCC[C@H]2c2cc(-c3cc(NC(=O)c4ccnc(C(C)(F)F)c4)ccc3C)cnc21 [Example 292]
Solution: 0.1 nM

* * *

Listed here: items and their measured pIC50.
target: C-Raf FL (full length CRAF with Y340E and Y341E activating mutations, co-expressed with h14-3-3 zeta) (Homo sapiens (Human), UniProt P04049, Y340E/Y341E); assay: In vitro Raf activity determination, AlphaScreen p-MEK readout, c-Raf (C-Raf FL); settings: c-Raf approximately 4 nM, ATP 1 μM, pre-incubation 60 minutes, reaction 1 hour
// pIC50 here means minus log10 of the molar concentration (mol/L)

Previously resolved entries follow.
compound=CCN1C[C@H]2CCOCCN2c2cc(-c3cc(NC(=O)c4ccnc(C(F)(F)F)c4)ccc3C)cnc2C1=O parameter=pIC50 test_value=8.44
compound=CCN1C[C@H]2COCCN2c2cc(-c3cc(NC(=O)c4ccnc(C(F)(F)F)c4F)ccc3C)cnc2C1=O parameter=pIC50 test_value=9.40
compound=CCN1C(=O)[C@H]2[C@@H]3COC[C@@H]3[C@H]2c2cc(-c3cc(NC(=O)c4ccnc(C(F)(F)F)c4F)ccc3C)cnc21 parameter=pIC50 test_value=9.30
compound="CCN1C(=O)[C@H]2[C@@H]3COC[C@@H]3[C@H]2c2cc(-c3cc(NC(=O)c4ccnc(C(F)(F)F)c4)ccc3C)cnc21 (racemic)" parameter=pIC50 test_value=9.70
compound=Cc1ccc(NC(=O)c2ccnc(C(F)(F)F)c2)cc1-c1ccc2c(c1)N1CCOCC[C@H]1C(F)(F)[C@H]2O parameter=pIC50 test_value=9.15
compound=Cc1ccc(NC(=O)c2cncc(C(F)(F)F)c2)cc1-c1cc2c(cc1F)C[C@@](F)(CO)[C@@H]1COCCN21 parameter=pIC50 test_value=8.80
compound=CCN1C(=O)Cc2nncn2-c2cc(-c3cc(NC(=O)c4ccnc(C(F)(F)F)c4)ccc3C)cnc21 parameter=pIC50 test_value=8.89
compound="Cc1ccc(NC(=O)c2ccnc(C(F)(F)F)c2)cc1-c1ccc2c(c1)N1CCOC[C@H]1C[C@H]2O [Example 4]" parameter=pIC50 test_value=11.21
compound=Cc1ccc(NC(=O)c2cnnc(C(F)(F)F)c2)cc1-c1ccc2c(c1)N1CCOC[C@H]1[C@](F)(CO)C2 parameter=pIC50 test_value=9.70
compound=Cc1ccc(NC(=O)c2cnnc(C(F)(F)F)c2)cc1-c1cnc2c(c1)N1CCOC[C@H]1C[C@H]2OCCO parameter=pIC50 test_value=9.40

# input for lookup
Exercise: Give pIC50 for Cc1ccc(NC(=O)c2ccnc(C(F)(F)F)c2)cc1-c1ccc2c(c1)N1CCOC[C@H]1[C@](F)(CO)C2 [Example 381]
Solution: 9.52

* * *

biological target: C-Raf FL (full length CRAF with Y340E and Y341E activating mutations, co-expressed with h14-3-3 zeta) (Homo sapiens (Human), UniProt P04049, Y340E/Y341E); assay: In vitro Raf activity determination, AlphaScreen p-MEK readout, c-Raf (C-Raf FL); settings: c-Raf approximately 4 nM, ATP 1 μM, pre-incubation 60 minutes, reaction 1 hour
# note: exactly 0.1 nM is not below, so it is -1; use 1 for IC50 strictly under it

compound="Cc1ccc(NC(=O)c2ccnc(C(C)(F)F)c2)cc1-c1cnc2c(c1)N1CCOC[C@H]1[C@H](CO)C2 [Example 117]" class_name=1

Exercise: Answer whether the compound CCN1C(=O)C2COCCC2(C)c2cc(-c3cc(NC(=O)c4ccnc(C(F)(F)F)c4F)ccc3C)cnc21 (stereo not shown) [Example 347] has IC50 strictly less than 0.1 nM
Solution: -1
